Each entry below carries its measured AC50, system: Cytochrome P450 2C9 (Homo sapiens, UniProt P11712).
Sequence (P11712 whole entry): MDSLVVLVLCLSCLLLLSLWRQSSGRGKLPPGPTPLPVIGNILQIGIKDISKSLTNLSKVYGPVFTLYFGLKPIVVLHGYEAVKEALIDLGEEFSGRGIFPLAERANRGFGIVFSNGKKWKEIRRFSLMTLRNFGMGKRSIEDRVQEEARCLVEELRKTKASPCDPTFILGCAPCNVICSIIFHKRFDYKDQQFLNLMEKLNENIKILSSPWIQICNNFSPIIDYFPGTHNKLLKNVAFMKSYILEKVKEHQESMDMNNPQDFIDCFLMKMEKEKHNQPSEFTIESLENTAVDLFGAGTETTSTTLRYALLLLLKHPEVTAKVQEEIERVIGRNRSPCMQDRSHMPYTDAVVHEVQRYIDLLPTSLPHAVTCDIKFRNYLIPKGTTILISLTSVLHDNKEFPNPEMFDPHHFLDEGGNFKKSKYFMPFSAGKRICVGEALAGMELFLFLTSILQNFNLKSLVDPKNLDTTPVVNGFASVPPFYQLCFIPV

CC[C@]1(c2ncc[nH]2)Cc2ccccc2O1 : 25.1 µM (inconclusive)
Fc1ccc2nc3[nH]c4ccccc4c3nc2c1 : 10 µM (inconclusive)

Asked: # returns recorded AC50 (system: Cytochrome P450 2C9 (Homo sapiens, UniProt P11712)) for CCC1NC(=S)N(C2CCCCC2)C1=O (stereo not drawn)
Given back: 15.8 µM (inconclusive)

###

Listed here: items and their measured EC50.
- study-system: Corticotropin-releasing factor receptor 2/Corticotropin-releasing factor-binding protein (Homo sapiens, UniProt P24387+Q13324)
- Sequence (Q13324 whole entry): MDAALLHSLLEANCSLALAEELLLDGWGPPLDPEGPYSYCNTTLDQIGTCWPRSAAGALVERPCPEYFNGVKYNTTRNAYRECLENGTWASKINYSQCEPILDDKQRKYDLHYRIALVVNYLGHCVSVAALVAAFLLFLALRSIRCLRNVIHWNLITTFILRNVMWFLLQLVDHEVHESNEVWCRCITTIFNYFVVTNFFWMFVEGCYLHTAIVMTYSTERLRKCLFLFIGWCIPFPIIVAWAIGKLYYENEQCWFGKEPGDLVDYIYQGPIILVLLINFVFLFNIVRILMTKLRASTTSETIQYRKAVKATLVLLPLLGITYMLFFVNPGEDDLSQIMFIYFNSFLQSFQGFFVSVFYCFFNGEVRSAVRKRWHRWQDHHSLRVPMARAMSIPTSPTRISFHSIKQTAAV
- Sequence (P24387 whole entry): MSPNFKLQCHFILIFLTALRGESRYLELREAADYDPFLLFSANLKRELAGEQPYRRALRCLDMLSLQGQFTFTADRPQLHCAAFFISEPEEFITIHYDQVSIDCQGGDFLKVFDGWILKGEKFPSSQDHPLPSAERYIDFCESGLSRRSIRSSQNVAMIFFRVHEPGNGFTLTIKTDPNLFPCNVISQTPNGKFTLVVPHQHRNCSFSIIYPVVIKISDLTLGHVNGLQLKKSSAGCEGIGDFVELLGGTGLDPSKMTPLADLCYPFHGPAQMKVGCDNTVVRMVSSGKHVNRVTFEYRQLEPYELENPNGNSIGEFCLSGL
- experiment-summary: activators of CRF receptor 2 with binding protein – uHTS hits, confirmation (AID 602473)
- Format: functional
- conditions: read-out: EC50_Mean
Calls of active or inactive are those of the source.

Worked set:
CC(=O)c1cccc(NC(=S)NC(=O)Cc2ccc(Cl)cc2)c1 : > 53 µM (inactive)
Cc1cc(/C=N/NC(=O)c2ccoc2C)cc(C)c1O : > 53 µM (inactive)
O=[N+]([O-])c1ccc(-c2ccc(/C=N/Nc3nc(N4CCCCC4)nc(N4CCCCC4)n3)o2)cc1 : 5.96 µM (active)

Asked: Query: EC50; subject: "CCCN(CCC)S(=O)(=O)c1ccc(C(=O)Nc2nnc(-c3cccc(OC)c3)o2)cc1"
Given back: 5.45 µM (active)

Asked: Query: EC50; subject: "CC(C)c1cc(NC(=O)c2ccccc2)cc(C(C)C)c1O"
Given back: > 53 µM (inactive)

###

- study-system: Protein RecA (Mycobacterium tuberculosis)
- experiment-summary: Fluorescence Cell-Free Homogeneous Dose Retest to Identify Inhibitors of RecA-Intein Splicing Activity. [Related pubchem assays (depositor defined):AID2097, AID2223, AID489010, AID492950]
- Assay type: functional
Active and inactive are the calls of the source.
// allowed return values: active, inactive

CC1Nc2ncnc(N3CCc4ccccc4C3)c2N(Cc2ccc(Br)cc2)C1=O (stereo not given) : active

Asked: Please let me know the test result on file for "Cc1nn(-c2ccccc2)c(Cl)c1/C=C1\SC(=S)N(CCCCCC(=O)O)C1=O" .
Given back: active

Asked: Please let me know the test result on file for Cc1ccc(NC(=O)C(CC(C)C)NC(N)=O)cc1 (stereo not given) .
Given back: inactive

###

Each entry below carries its measured AC50, system: UniProt:P11712.

Worked set:
COc1ccc(C(=O)NCc2cn3ccccc3n2)cc1 : inconclusive
COc1ccccc1C1=NOC(COC(=O)c2ccc3ccccc3n2)C1 (stereo unspecified) : inconclusive
COc1ccccc1CC(=N)NOC(=O)c1ccc(C)c([N+](=O)[O-])c1 : inconclusive
COc1cc(C(=O)NCc2ccc(OCCN(C)C)cc2)cc(OC)c1OC [TRIMETHOBENZAMIDE] : inactive
Cn1nc(C(F)(F)F)c(/C=N/OC(=O)c2ccccc2)c1Cl : inactive

Next item in the queue.
Asked: # returns recorded AC50 (system: UniProt:P11712) for "CCN(CC)C(=O)C(=O)N/N=C/c1cccc(Br)c1"
Given back: inconclusive

###

- study-system: Nucleotide-binding oligomerization domain-containing protein 2 (Homo sapiens)
- Sequence (Q9HC29 whole entry, the tested form may be a part): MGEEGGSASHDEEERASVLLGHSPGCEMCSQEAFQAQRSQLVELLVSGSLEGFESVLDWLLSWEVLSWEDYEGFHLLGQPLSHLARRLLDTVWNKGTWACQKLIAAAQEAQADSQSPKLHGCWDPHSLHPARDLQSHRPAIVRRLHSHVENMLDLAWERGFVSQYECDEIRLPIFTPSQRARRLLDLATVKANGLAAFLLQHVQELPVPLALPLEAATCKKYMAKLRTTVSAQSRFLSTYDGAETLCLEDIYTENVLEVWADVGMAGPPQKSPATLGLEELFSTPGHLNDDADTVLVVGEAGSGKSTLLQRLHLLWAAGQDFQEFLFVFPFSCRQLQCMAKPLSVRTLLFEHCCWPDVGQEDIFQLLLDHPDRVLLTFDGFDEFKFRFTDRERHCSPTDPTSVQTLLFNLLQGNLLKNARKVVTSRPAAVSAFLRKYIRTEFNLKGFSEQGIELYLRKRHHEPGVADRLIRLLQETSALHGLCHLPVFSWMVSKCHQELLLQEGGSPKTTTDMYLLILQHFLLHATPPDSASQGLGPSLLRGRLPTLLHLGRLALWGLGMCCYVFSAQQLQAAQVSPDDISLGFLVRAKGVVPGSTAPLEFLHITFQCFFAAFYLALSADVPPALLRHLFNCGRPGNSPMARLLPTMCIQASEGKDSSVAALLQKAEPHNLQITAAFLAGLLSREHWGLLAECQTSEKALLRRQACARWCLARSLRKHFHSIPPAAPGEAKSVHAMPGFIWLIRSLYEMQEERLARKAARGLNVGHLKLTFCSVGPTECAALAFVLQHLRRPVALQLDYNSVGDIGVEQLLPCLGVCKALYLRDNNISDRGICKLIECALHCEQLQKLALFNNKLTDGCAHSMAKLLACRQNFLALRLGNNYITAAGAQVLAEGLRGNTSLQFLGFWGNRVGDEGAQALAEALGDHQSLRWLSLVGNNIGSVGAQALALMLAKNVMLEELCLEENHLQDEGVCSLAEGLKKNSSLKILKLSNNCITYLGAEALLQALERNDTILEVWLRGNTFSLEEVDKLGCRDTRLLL
- experiment-summary: inhibition of NOD2-driven NF-kB reporter – cell-based, luminescence, uHTS, HEK293 (AID 1566)
- Format: functional
Activity calls are given as the source filed them.
// allowed return values: active, inactive

COc1cc(/C=C/c2ccc3cccc(O)c3n2)cc(Cl)c1OC : inactive

Asked: Please let me know the test result on file for CC(C)(C)C1CCC2(CC1)C(C#N)=C(SCC(=O)NC1CCCCC1)NC(=O)C2C#N (centres undefined) .
Given back: active

Asked: Please let me know the test result on file for "O=C(NCc1cc(Br)cc(Br)c1OC(=O)c1ccccc1[N+](=O)[O-])c1ccccc1" .
Given back: active

Asked: Please let me know the test result on file for "O=C(/C=C/c1cccs1)Nc1sc2c(c1C(=O)O)CCCC2" .
Given back: inactive

###

Listed here: items and their measured AC50.
- study-system: Histone-lysine N-methyltransferase NSD2 (Homo sapiens, UniProt O96028)
- Sequence (O96028 whole entry): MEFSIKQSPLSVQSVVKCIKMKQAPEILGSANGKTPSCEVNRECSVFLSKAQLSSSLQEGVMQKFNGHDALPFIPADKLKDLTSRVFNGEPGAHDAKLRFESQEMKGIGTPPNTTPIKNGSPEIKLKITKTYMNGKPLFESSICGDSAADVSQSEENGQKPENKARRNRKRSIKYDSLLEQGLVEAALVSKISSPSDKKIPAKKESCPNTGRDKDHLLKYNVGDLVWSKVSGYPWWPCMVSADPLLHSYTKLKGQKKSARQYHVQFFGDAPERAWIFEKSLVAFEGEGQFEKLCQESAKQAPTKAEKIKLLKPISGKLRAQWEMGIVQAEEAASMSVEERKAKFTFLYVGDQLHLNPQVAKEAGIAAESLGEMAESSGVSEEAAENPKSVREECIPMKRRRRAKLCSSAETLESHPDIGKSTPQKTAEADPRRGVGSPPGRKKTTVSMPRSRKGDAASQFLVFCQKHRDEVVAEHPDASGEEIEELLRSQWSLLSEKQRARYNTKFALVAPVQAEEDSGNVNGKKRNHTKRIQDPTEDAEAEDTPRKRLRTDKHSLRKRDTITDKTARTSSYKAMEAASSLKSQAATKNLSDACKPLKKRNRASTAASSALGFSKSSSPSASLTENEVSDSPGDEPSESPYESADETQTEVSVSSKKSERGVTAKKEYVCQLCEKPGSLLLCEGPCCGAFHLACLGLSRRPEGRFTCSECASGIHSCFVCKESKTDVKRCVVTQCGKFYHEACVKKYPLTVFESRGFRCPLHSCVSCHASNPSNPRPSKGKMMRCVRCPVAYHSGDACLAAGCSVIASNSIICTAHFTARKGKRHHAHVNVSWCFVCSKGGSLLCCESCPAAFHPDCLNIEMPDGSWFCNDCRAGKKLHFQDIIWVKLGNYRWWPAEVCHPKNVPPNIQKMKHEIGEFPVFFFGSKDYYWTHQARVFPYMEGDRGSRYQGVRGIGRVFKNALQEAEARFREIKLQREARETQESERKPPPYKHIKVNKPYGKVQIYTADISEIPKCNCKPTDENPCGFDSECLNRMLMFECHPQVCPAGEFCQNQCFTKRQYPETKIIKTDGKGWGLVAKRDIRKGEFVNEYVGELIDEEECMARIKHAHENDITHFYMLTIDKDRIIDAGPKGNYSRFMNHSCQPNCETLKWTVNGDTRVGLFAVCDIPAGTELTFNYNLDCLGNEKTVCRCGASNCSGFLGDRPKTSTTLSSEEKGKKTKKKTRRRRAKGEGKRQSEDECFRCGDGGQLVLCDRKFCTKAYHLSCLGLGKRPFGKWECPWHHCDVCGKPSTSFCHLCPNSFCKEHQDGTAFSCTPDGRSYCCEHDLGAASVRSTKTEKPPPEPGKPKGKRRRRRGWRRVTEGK
- Assay type: biochemical
Activity calls are given as the source filed them.

Worked set:
O=C(CCCN1C(=O)/C(=C\c2ccco2)SC1=S)Nc1ccc(O)cc1C(=O)O : 16.1 µM (active)
OCC[n+]1c2ccccc2nc2ccc(N3CCOCC3)cc21 : 6.78 µM (active)
C[n+]1cccc2c(Br)ccc([O-])c21 : 7.45 µM (active)
CCC(C)NCCCOc1cc(Cl)ccc1Cl (stereo not given) : > 20 µM (inactive)

Next item in the queue.
Asked: Query: AC50; subject: CC(=O)NC1=C(N2CC2C)C(=O)C(NC(C)=O)=C(N2CC2C)C1=O (stereo not given)
Given back: 10.2 µM (active)

###

Listed here: items and their measured IC50.
- study-system: Protein skinhead-1 (Caenorhabditis elegans, UniProt P34707)
- Sequence (P34707 whole entry): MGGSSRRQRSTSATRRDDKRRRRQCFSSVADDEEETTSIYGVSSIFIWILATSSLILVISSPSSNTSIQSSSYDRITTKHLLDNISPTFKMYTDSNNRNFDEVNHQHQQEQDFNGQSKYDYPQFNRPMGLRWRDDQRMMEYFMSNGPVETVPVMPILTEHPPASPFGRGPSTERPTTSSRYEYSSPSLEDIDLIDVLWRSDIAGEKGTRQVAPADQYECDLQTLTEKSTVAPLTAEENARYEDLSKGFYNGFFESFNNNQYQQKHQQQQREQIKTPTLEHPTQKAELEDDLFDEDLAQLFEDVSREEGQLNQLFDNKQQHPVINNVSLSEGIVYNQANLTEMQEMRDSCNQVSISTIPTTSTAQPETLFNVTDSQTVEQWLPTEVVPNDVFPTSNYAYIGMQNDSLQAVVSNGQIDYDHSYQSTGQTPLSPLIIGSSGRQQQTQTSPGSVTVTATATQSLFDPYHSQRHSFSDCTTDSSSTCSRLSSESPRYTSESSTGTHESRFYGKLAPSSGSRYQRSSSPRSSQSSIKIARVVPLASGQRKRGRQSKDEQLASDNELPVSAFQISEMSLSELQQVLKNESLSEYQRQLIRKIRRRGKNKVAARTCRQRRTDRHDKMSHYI
- Type: functional
Activity calls are given as the source filed them.

Worked set:
Cc1ccccc1-c1nc(C[S+]([O-])CC(=O)NCc2ccc3c(c2)OCO3)c(C)o1 (centres undefined) : > 100 µM (inactive)
COc1cc(CCC(=O)OCC(=O)Nc2ccc(F)cc2F)cc(OC)c1OC : > 100 µM (inactive)
c1csc(-c2cn3ccc4ccccc4c3n2)c1 : 33.6 µM (active)

Asked: Query: IC50; subject: "O=C(CN1C(=O)NC2(CCCC2)C1=O)Nc1cc(S(=O)(=O)N2CCOCC2)ccc1OCC(F)(F)F"
Given back: > 100 µM (inactive)

Asked: Query: IC50; subject: "CCN1CCN(c2ncnc3c2c(-c2ccccc2)cn3-c2ccc(F)cc2)CC1"
Given back: 12.6 µM (active)

###

Listed here: items and their measured EC50.
- study-system: RNA-binding protein pos-1 (Caenorhabditis elegans)
- Sequence (G5EF15 whole entry): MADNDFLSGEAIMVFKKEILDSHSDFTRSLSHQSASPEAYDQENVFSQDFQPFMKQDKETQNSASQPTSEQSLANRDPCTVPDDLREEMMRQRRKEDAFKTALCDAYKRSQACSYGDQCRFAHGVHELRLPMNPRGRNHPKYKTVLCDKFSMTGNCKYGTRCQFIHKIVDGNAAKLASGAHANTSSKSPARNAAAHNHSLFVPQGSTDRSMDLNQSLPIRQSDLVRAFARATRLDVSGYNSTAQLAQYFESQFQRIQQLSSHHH
- experiment-summary: disruptors of C. elegans POS-1 RNA interaction – biochemical, fluorescence polarization, dose response (AID 1964);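 further: purified POS-1 fused to maltose binding protein made in E. coli; potency of compounds blocking POS-1 binding to fluorescent RNA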
The source made the active and inactive calls.

Worked set:
CCCN1CCc2cccc3c2[C@H]1Cc1ccc(O)c(O)c1-3 : 5.56 µM (active)
CC1(OC(=O)c2ccco2)C(=O)C=C2C=C(C3CC3)OC=C2C1=O (stereo not drawn) : 20.2 µM (active)
CCOC(=O)c1cc(=O)n2nc(-c3ccccc3F)nc2s1 : > 300 µM (not active)
CCC(Oc1ccccc1)C(=O)Nc1ccccn1 (stereo not drawn) : > 300 µM (not active)
Nc1ncnc(NNC(=O)CNC(=O)c2c(F)cccc2Cl)c1[N+](=O)[O-] : 0.548 µM (active)
C=CCN1C(=O)NC(=O)/C(=C/c2c(CCN(C)C(=O)c3ccccc3)cc3c(c2OC)OCO3)C1=O : > 300 µM (not active)

Next item in the queue.
Asked: Query: EC50; subject: "COc1cccc(=O)c2c(C)oc(C)c12"
Given back: > 300 µM (not active)

###

- study-system: Short transient receptor potential channel 4 (Mus musculus, UniProt Q9QUQ5)
- Sequence (Q9QUQ5 whole entry): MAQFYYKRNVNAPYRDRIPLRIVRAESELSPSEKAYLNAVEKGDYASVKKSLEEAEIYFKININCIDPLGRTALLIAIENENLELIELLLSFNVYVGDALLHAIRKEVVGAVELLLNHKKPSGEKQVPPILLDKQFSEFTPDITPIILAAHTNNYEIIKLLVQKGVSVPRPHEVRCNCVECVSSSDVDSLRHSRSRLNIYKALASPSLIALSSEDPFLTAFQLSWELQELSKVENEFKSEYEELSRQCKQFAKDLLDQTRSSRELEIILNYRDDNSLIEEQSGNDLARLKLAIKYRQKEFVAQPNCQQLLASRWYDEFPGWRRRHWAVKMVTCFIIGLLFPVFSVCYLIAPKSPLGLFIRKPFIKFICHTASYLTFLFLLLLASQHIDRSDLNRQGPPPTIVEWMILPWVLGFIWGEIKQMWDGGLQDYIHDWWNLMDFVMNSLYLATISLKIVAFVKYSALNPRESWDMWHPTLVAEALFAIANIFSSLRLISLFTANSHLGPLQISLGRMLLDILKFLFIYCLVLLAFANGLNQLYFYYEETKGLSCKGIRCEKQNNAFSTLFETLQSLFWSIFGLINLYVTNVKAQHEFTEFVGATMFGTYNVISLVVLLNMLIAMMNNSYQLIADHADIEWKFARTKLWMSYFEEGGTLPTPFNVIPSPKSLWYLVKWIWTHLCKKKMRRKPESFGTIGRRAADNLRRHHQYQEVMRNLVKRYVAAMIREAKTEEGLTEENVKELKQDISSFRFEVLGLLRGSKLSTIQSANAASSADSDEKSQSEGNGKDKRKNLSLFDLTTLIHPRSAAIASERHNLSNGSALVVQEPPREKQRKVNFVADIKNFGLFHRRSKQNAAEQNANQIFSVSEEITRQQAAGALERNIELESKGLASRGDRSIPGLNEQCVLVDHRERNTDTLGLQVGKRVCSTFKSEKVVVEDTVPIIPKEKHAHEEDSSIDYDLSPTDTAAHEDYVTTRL
- experiment-summary: calcium entry via TRPC4 opening agents – cell-based, HEK293 TRPC4/mu-opioid, Fluo-4 calcium, dose response (AID 434937)
- Type: functional
Calls of active or inactive are those of the source.
Listed here: items and their measured EC50.

Worked set:
COc1ccccc1NS(=O)(=O)c1cccc(C(=O)NC2CCN(Cc3ccccc3)CC2)c1 : 944 nM (active)
COc1ccccc1/C=C/CN1CCCC(CCC(=O)NCc2ccccc2F)C1 (stereo not given) : 473 nM (active)
NCCCNC(=O)c1cc2ccccc2[nH]1 : 7500 nM (active)
CC(C)(C)c1cc(Cl)ccc1OCCn1ccnc1 : 5960 nM (active)

Asked: Query: EC50; subject: CC1CCCN(CCOCCOc2ccccc2-c2ccccc2)C1 (stereo not given)
Given back: 421 nM (active)
